Values were extracted from patent US8513260B2.

# Tested on: unfed adult fleas (Ctenocephalides felis)
# testProtocol: Ctenocephalides felis test (CTECFE)
# Type: in vivo
# conditionNotes: Ctenocephalides felis, 48 h; 100 ppm in citrated cow's blood; after 2 days; read-out: efficacy (kill)
parameterMeasured: pest or weed control at 100 ppm (%)

>>> quantitativeresult("COc1nccnc1-n1nc(C(F)(F)F)c(-c2ccc(Br)cc2)c1N [Ex. 2]")
90
>>> quantitativeresult("CCc1nn(-c2nccnc2OC)c(N)c1-c1cc(Cl)c2c(c1)OCO2 [Ex. 76]")
90
>>> quantitativeresult("COc1cc(-c2c(C(F)(F)F)nn(-c3nccnc3OC)c2N)cc(Cl)c1OC [Ex. 141]")
100
>>> quantitativeresult("COc1nccnc1-n1nc(C)c(-c2cc(Cl)c3c(c2)OCO3)c1N [Ex. 75]")
100
>>> quantitativeresult("COc1cc(-c2c(C(F)(F)C(F)(F)F)nn(-c3nccnc3OC)c2N)cc(Cl)c1OC [Ex. 51]")
100
>>> quantitativeresult("COc1nccnc1-n1nc(C(F)(F)F)c(-c2cc(I)c3c(c2)OCO3)c1N [Ex. 139]")
100
>>> quantitativeresult("COc1nccnc1-n1nc(C(F)(F)F)c(-c2cc(Br)cc(Br)c2)c1N [Ex. 22]")
95
>>> quantitativeresult("COc1nccnc1-n1nc(C(F)(F)F)c(-c2cc(Cl)c3c(c2)OCO3)c1N [Ex. 48]")
100
>>> quantitativeresult("COc1nccnc1-n1nc(C(F)(F)F)c(-c2cc(C(F)(F)F)cc(C(F)(F)F)c2)c1N [Ex. 14]")
100
